Target: Protein deacetylase HDAC6 (Homo sapiens, UniProt Q9UBN7)
Sequence (Q9UBN7 whole entry): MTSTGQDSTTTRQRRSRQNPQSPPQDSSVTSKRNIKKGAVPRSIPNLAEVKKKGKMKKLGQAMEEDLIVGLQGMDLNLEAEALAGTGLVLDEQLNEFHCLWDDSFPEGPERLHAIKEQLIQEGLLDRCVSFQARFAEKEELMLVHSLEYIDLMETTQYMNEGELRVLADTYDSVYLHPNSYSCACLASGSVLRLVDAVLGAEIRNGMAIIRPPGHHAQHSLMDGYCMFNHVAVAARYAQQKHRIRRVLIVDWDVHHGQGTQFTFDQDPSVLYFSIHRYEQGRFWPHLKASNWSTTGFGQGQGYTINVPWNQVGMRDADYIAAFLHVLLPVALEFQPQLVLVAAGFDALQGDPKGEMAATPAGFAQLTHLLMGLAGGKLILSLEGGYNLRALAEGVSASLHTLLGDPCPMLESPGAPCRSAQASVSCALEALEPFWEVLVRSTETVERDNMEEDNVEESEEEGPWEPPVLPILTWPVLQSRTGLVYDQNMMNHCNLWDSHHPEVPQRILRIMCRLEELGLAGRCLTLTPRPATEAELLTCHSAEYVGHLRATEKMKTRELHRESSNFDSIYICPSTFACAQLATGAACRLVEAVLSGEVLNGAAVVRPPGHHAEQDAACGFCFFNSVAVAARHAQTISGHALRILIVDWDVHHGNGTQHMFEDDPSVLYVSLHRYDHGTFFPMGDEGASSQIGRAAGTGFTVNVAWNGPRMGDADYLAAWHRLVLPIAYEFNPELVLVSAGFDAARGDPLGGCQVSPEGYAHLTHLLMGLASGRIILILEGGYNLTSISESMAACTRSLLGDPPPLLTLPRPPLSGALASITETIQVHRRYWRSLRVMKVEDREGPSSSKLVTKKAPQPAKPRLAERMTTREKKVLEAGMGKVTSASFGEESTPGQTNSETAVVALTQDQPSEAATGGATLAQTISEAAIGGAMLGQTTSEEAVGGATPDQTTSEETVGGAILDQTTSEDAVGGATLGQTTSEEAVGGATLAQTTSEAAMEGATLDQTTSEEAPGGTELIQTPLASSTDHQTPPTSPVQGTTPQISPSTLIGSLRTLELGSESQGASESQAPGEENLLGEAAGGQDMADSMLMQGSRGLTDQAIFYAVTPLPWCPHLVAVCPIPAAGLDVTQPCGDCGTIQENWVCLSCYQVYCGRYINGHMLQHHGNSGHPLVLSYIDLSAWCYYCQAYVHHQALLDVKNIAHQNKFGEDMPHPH
Here, molecules appear alongside IC50 reported for Protein deacetylase HDAC6 (Homo sapiens, UniProt Q9UBN7) in the literature.
RECORDED METRIC: IC50 (µM)

CCCNNC(=O)c1ccc(Nc2nccc(N(C)c3ccc4c(C)n(C)cc4c3)n2)cc1
8.96

[1] CC/C(=C(\c1ccccc1)c1ccc(OCCN(C)Cc2ccc(NC(=O)CCCCCCC(=O)NO)cc2)cc1)c1ccccc1
[2] O=C(NO)c1ccc(CNC(=O)[C@@H]2Cc3c([nH]c4ccccc34)[C@@H](c3ccc(Cl)cc3)N2)cc1
Query string: Parameter metric = IC50. Return the lower-valued option from 1 and 2 . Answer with the label corresponding to your selection.
Result string: 2
(2: 0.00561 µM, 1: 2.2 µM)

[P] N#CC(C#N)=C1C=C(/C=C/c2ccc(O)c(NC(=O)CCCCCCC(=O)NO)c2)Oc2ccc(O)cc21
[Q] O=C(NO)c1ccc(CN2C(=O)C3=C(CCN(Cc4cccc(F)c4)C3)N3CCN=C23)cc1
[R] COc1ccc2[nH]c3c(c2c1)CCN(Cc1ccc(C(=O)NO)cc1)C3
Query string: Arrange the 3 molecules from largest to smallest IC50. Form field (ranking): labels in requested order.
Result string: P, Q, R

[1] COc1ccc2c(ccn2S(=O)(=O)c2ccc(C(=O)NO)cc2)c1
[2] CNC(=O)c1ccccc1Nc1cc(Nc2ccc(NC(=O)CCCCCCC(=O)NO)cc2)ncc1Cl
Query string: // compare measured IC50, left 1 , right 2 , return larger # reply format: chosen label
Result string: 1
(1: 0.168 µM, 2: 0.016 µM)
